Data credit: patent EP4786492A1

molecular target: human DLL3 endogenously expressed on SHP77 and NCI-H82 cells (human) (UniProt Q9NYJ7); assay: FACS SHP77 cells, 0.8 nM
Sequence (Q9NYJ7 27-618): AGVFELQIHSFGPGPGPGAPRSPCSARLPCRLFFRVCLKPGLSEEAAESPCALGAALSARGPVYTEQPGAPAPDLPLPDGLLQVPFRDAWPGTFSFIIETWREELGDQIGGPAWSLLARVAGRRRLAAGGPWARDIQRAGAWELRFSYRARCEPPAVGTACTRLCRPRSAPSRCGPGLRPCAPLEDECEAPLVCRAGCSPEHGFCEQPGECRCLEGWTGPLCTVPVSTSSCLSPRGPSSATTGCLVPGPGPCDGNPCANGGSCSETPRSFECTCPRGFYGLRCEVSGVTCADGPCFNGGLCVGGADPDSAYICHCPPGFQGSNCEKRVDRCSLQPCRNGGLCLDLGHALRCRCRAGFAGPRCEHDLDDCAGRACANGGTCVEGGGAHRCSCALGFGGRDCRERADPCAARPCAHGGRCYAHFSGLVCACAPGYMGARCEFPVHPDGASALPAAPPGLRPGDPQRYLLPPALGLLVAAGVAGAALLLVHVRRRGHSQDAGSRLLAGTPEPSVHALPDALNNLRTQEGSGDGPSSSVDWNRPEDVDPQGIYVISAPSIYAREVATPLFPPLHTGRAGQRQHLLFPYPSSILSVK
experimental_endpoint: MFI (MFI)
Answers are plain numbers, in MFI.

1) mab011 scFv-hFc (Fc fusion, not shown: small tags and cut ends; a dimerising Fc or GST) scFv (part 1 of 2): DIVLTQSPATLSVTPGDSVSLSCRASQSISNNLHWYQQKSHESPRLLIKYASQSISGIPSRFSGSGSGTDFTLSINSVETEDFGMYFCQQSNSWPWTFGGGTKLEIK scFv (part 2 of 2): EVQLQQSGPELVKPGASVKISCKASGYTFTDYYMNWVKQSHGKSLEWIGDISPNYGGTNYNQKFKGKATLTVDKSSSTACMELRSLTSEDSAVYYCTRSFYYYGTGYDWYFDVWGTGTTVTVSS | 417

Moving on to the next binder.
Qu. Annotate the binder mab003 scFv-hFc (Fc fusion, part only; not given: VL-VH linker and human IgG1 Fc, not shown: another chain or arm of the molecule; a dimerising Fc or GST; small tags and cut ends) scFv (part 1 of 2): DVQITQSPSYLAASPGETITINCRASKSISKYLAWYQEKPGKTNKLLIYSGSTLHSGIPSRFSGSGSGTDFTLTISSLEPEDFAIYYCQQHNEYPLTFGGGTKLELK scFv (part 2 of 2): QVQLQQSGTELMKPGASVKLSCKATGYTFTGNWIEWVKQRPGHGLEWIGEILPGTGSTQYNEKFKGKATFTADPSSNTAYMQLSSLTTEDSAIYYCARWGSTVVAYDYWGQGTTLTVSS with its measured MFI.
Ans. 732
